Cited source for all entries: PubChem BioAssay (Tox21)

Assay details: qHTS assay to identify small molecule agonists of the estrogen receptor alpha (ER-alpha) signaling pathway in the presence of an antagonist - cell viability counter screen (AID 1259386);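 note: cells exposed to compounds for 22 h at 37 °C before the viability read; % is set by controls: 0 for no effect and ±100 for the full control effect; nearly all actives have a fitted effect of over 30% in size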
Details: VM7Luc4E2 viability, CellTiter-Fluor fluorescence, 22 h; series mostly up to 92.4 µM
Inconclusive results are not listed. Activity calls are given as the source filed them. Calls come from the whole dose curve; as a rule, active = well fitted cell-killing curve with a large enough effect in the repeat runs; inconclusive = weak or mixed curves, or effect the other way; inactive = no such curve, though single readings can be large or run the other way.
Hi! Could you answer with just one of these? active, inactive

Request: For CN1[C@@H]2CC[C@H]1CC(OC(=O)C(CO)c1ccccc1)C2 (some centres not stated) , which call appears in the assay record?
Result: inactive

Request: Could you check what this test reported for "OCCCS" ?
Result: inactive

---

Target desc: Voltage-gated inwardly rectifying potassium channel KCNH2 (Homo sapiens) (UniProt Q12809)
Sequence (Q12809 whole entry, looked up): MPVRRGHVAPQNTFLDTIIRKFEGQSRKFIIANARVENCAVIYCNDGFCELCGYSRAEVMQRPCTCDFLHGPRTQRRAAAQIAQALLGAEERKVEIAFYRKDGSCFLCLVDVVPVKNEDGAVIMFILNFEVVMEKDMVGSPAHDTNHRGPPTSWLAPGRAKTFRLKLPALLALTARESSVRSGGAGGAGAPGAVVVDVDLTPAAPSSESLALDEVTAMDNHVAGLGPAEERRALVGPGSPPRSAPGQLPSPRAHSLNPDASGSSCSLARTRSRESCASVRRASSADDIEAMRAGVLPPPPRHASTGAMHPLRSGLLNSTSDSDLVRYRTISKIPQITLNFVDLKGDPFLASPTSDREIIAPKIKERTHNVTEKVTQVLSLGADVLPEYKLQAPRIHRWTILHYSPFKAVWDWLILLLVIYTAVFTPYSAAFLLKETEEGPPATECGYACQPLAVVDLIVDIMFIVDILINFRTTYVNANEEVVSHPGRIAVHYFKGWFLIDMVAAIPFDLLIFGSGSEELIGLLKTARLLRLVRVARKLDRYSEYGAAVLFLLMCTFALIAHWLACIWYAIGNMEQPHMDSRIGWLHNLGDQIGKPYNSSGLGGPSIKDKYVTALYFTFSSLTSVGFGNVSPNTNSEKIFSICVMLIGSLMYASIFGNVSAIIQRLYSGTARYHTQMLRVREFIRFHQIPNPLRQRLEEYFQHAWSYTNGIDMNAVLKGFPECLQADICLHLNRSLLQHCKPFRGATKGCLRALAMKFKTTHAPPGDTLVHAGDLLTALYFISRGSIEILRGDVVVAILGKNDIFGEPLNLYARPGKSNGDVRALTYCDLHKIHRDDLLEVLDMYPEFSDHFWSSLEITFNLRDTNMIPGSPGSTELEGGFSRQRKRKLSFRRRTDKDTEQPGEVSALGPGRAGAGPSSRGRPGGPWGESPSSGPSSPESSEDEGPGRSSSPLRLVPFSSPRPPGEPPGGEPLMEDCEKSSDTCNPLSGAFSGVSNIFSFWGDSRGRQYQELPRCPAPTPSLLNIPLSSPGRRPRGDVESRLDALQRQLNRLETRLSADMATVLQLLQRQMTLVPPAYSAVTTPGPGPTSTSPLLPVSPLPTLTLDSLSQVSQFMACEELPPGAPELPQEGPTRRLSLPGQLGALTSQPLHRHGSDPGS
Assay details: Human Ether-a-go-go-Related Gene (hERG) channel small molecule antagonists: fluorescence cell-based qHTS assay (AID 1671200);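 note: hERG-expressing U2OS cells given a thallium stimulus after FluxOR II dye loading; % is set by controls: 0 for no effect and ±100 for the full control effect; nearly all actives have a fitted effect of over 50% in size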
Details: hERG-U2OS cells, FluxOR thallium flux fluorescence; series mostly up to 76.8 µM
Results filed as inconclusive are left out. Activity calls are given as the source filed them. Calls follow the shape of the dose curve; as a rule, active = well fitted inhibition curve with a large enough effect in the repeat runs; inconclusive = weak or mixed curves; inactive = flat fitted curve, though single readings scatter.
Experimental endpoint: activity change, negative = inhibition

Some compounds with known activity change, negative = inhibition results, for comparison:
{"Compound": "C=CC(=C)CC/C=C(\\C)CCC=C(C)C", "activity change, negative = inhibition": "-2.72% [at 15.8 µM] (inactive)"}
{"Compound": "O=S(O)O", "activity change, negative = inhibition": "4.11% [at 15.8 µM] (inactive)"}
{"Compound": "O=C=NCc1cccc(CN=C=O)c1", "activity change, negative = inhibition": "0.993% [at 15.8 µM] (inactive)"}

API: the following record is the query input.
Request: Name the recorded activity change, negative = inhibition of the compound listed here: CCC(=O)CC(C)CC (centres undefined)
Result: 2.31% [at 0.29 µM] (inactive)

---

Assay details: Human pregnane X receptor (PXR) small molecule agonists, qHTS cell viability counter screen (AID 1346977); note: nearly all actives have a fitted effect of over 50% in size
Details: PXR-Luc HepG2 viability, CellTiter-Fluor, 24 h; series mostly up to 92.4 µM
Records with an inconclusive call do not appear. Activity calls are given as the source filed them. Calls come from the whole dose curve; as a rule, active = well fitted cell-killing curve with a large enough effect in the repeat runs; inconclusive = weak or mixed curves, or effect the other way; inactive = flat fitted curve, though single readings scatter.
Classes to choose from: true (1) = active, false (0) = inactive

# count of solved cases: 4
{"Molecule": "C=C(C)C(=O)OCCC[Si](Cl)(Cl)Cl", "Classification": "false (0)"}
{"Molecule": "CCC(C)c1cc([N+](=O)[O-])cc([N+](=O)[O-])c1OC(=O)OC(C)C (stereo unspecified)", "Classification": "true (1)"}
{"Molecule": "CC1=CP(=O)(c2ccccc2)CC1 (stereo unspecified)", "Classification": "false (0)"}
{"Molecule": "CNC(=S)NN", "Classification": "true (1)"}

Consider now this further molecule.
Request: Per the records of this test, what outcome belongs to "CC1=CCC(=O)O1" ?
Result: false (0)

---

Assay details: qHTS assay to test for compound auto fluorescence at 535 nm (green) in HEK293 cell free culture (AID 720682); note: % is set by controls: 0 for no effect and ±100 for the full control effect
Details: cell-free medium, green autofluorescence 485/535 nm; series mostly up to 91.3 µM
From the text: U.S. Tox21 Program National Center for Advancing Translational Sciences [NCATS] NIH Chemical Genomics Center [NCGC] U.S. Environmental Protection Agency [EPA] National Institutes of Environmental Health Sciences [NIEHS] National Toxicology Program [NTP] U.S. Food and Drug Administration [FDA] Tox21 Assay Overview: Compound auto fluorescence often interferes with screening of the compound library against various biological targets and signaling pathways. […] This assay includes the green fluorescence data. […]
The source made the active and inactive calls. Calls follow the shape of the dose curve; as a rule, active = well fitted curve in the direction sought with a large enough effect in the repeat runs; inconclusive = weak or mixed curves; inactive = flat fitted curve, though single readings scatter.
Experimental endpoint: activity change

Study these solved cases before continuing.
{"Compound": "Cc1ccc2ccc3cccc4ccc1c2c34", "activity change": "inactive"}
{"Compound": "CCCCCCCC/C=C/CCCOC(C)=O", "activity change": "inactive"}
{"Compound": "CC(C(O)c1ccccc1)N(C)CCOC(c1ccccc1)c1ccccc1 (stereo not given)", "activity change": "inactive"}
{"Compound": "CCCCCCCCCCCCN(CCO)CCO", "activity change": "inactive"}
{"Compound": "O=C(O)Cc1ccc(OCCNC[C@H](O)c2ccccc2)cc1", "activity change": "inactive"}

Request: Answer with reported activity change of "CC(C)(C)c1cc(/C=C2\SC(=N)NC2=O)cc(C(C)(C)C)c1O"
Result: inactive

Request: Read the entry "Cc1c(C)n(Cc2ccccc2)c2ccc(C(=O)OCCN(C)C)cc12" and write its reported activity change.
Result: inactive

Request: Consider the compound "CCN(CC)CCOC(=O)C1(C2CCCCC2)CCCCC1" . State its measured activity change.
Result: inactive

Request: Identify the reported activity change for the following entry. "CCN=C1C=CC(=C(c2ccc(N(CC)CC)cc2)c2ccc(N(CC)CC)cc2)c2ccccc21"
Result: inactive

Request: Give the reported value of activity change for this record: CCCCCCC(C)OC(=O)COc1nc(F)c(Cl)c(N)c1Cl (stereo not given)
Result: inactive
